Provide the recorded pull-down binding Z-score for the entries that follow.
# System: TO-N3-2 (biotin conjugate)
# TEST DESCRIPTION: pull-down binding Z-score (relative to library population); higher = stronger binding
# ASSAY CONDITIONS: RNA library: Library-2
Answers are plain numbers.

{"columns": ["MACROMOLECULE SEQUENCE", "ASSAYED SYSTEM", "MEASUREMENT TYPE", "QUANTITATIVE READOUT"],
 "data": [
  ["UUUUGCUAUUACUUUUAAAGGCAAAA [hsa-mir-548e]", "TO-N3-2 (biotin conjugate)", "pull-down binding Z-score", -0.684],
  ["UCAAACAAGUUUCCAAAUUGUUUGA [hsa-mir-488]", "TO-N3-2 (biotin conjugate)", "pull-down binding Z-score", -1.02],
  ["UCCUGAUCUGAUGGAAGUCAUGA [hsa-mir-7843]", "TO-N3-2 (biotin conjugate)", "pull-down binding Z-score", 0.409],
  ["AGAGGCUGUGGGCAGGGGGAGAUGUGAAGGAAAGAACUAGGACCCAUUCAUCCACU [hsa-mir-6807]", "TO-N3-2 (biotin conjugate)", "pull-down binding Z-score", 2.79],
  ["GCUGCUUGCACUCGUUCAGC [hsa-mir-3661]", "TO-N3-2 (biotin conjugate)", "pull-down binding Z-score", 0.863]
]}

Q: Request - read-out pull-down binding Z-score | tested on TO-N3-2 (biotin conjugate) | sequence GGUGCAAAGCCUGCCCGCCCC [hsa-mir-5090]
A: 1.09

All figures here come from the supplement of paper PMC11865577.
